tested on: S. typhimurium; experiment: agar plate dilution method, MIC; format: cell-based; conditions: about 10^7 CFU/ml, 37° C., 18 hours
measured_attribute: minimum inhibitory concentration
Write no unit; give the number alone.

CC(C)[C@@H](O)C1=C(C(=O)O)N2C(=O)[C@H]([C@@H](C)O)[C@H]2[C@H]1C [Example 1] | 0.098

**Q:** State its minimum inhibitory concentration for this compound: C[C@@H](O)[C@H]1C(=O)N2C(C(=O)O)=C([C@H](O)C3CCCC3)[C@H](C)[C@H]12 [Example 3]
**A:** 0.098

**Q:** Indicate the recorded minimum inhibitory concentration value for this compound: C[C@@H](O)[C@H]1C(=O)N2C(C(=O)O)=C([C@H](O)C3CC3)[C@H](C)[C@H]12 [Example 2]
**A:** 0.098

**Q:** Supply measured minimum inhibitory concentration of C[C@@H](O)[C@H]1C(=O)N2C(C(=O)O)=C([C@H]3CCCO3)S[C@H]12 [SUN-5555, reference compound] in your reply.
**A:** 0.195
